- tested-target: HLA-A*02:01
- assay-protocol: IEDB peptide-MHC binding, purified MHC/direct/fluorescence; filed as Kd, often an IC50 or EC50 that approximates it; bounds were set here for any values at or beyond the usual limits of such assays
- test-parameters: source organism: Human immunodeficiency virus 1
Each entry below carries its recorded Kd.
Your answer should be a plain number; it is taken to be in nM.

KSLYNTIAVL
5

Exam item: Find the recorded Kd belonging to "RSLFNTIATLY" and report it.
Marked response: 5

Exam item: Sample "KSLYNTVATLY" — what was its Kd?
Marked response: 5

Exam item: # input sequence: "KSLFNTIATLY" ; wanted: its Kd
Marked response: 5

Exam item: Dear colleague, I am looking for the recorded Kd of the following sequence: "RSLYNTVAVLY"
Marked response: 10

Exam item: Recorded Kd of "KSLFNTIATL" , please.
Marked response: 5

Measured values drawn from the Immune Epitope Database (IEDB) for this set.
